# system-under-test: T1, cynomolgous monkey CD25 (cynomolgous monkey)
# T1 construct: also called cmCD25; cm
# test-details: SPR (BIAcore), cynomolgous CD25
Kindly supply the reported pKd values for the records listed here.
# log scale: pKd equals minus log10 of the concentration in mol/L

Given Variant C49 (antibody, V domains shown) VH: QVQLVQSGAEVKKPGSSVKVSCKASGYTFTSYRMHWVRQAPGQGLEWMGYISPNKGYTEYNQKFKDKATITADESTNTAYMELSSLRSEDTAVYYCARGGGVFDYWGQGTLVTVSS VL: DIQMTQSPSTLSASVGDRVTITCSASSKISYMHWYQQKPGKAPKLLIYTTSDLASGVPARFSGSGSGTEFTLTISSLQPDDFATYYCHQRSTYPLTFGQGTKVEVK , state its recorded pKd.
11.10

Given Variant C52 (antibody, V domains shown) VH: QVQLVQSGAEVKKPGSSVKVSCKASGYTFTSYRMHWVRQAPGQGLEWMGYIKPNSGYTEYNQKFKDKATITADESTNTAYMELSSLRSEDTAVYYCARGGGVFDYWGQGTLVTVSS VL: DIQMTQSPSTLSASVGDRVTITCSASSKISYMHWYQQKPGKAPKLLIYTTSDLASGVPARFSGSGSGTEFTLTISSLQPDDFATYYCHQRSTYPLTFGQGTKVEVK , state its recorded pKd.
10.12
